# TARGET_UNDER_TEST: T1, soluble human insulin receptor-immunoglobulin heavy chain chimera (human, UniProt P06213 28-956)
# T1 construct: extracellular domain; Heterotetramer; also called IR; sIR-Fc; not shown: immunoglobulin heavy chain constant domains replacing the transmembrane and intr
# PROTOCOL_DESCRIPTION: phage ELISA ratios compared
ASSAY_ENDPOINT: IR/IGF-1R ratio comparison

INSERT INTO assay_data (binder, reading_qualifier, result) VALUES
  ('DRAFYNGLRDLVGAVYGAWD [R20α-4-20C11-IR]', '=', 0.1),
  ('PGTDLGFYQALRCVVIQGACD [20E2B-2-B2-IGFR]', '=', 0.1),
  ('GAPVDQLHEDFYDWFVRQVSQAATG [H2CA-2-B2-IGFR]', '=', 0.3),
  ('KLHNLMFYYGLQRLVWGAGLG [20E2B-4-H3-IGFR]', '=', 0.1),
  ('TFYSCLASLLTGTPQPNRGPWERCR [20C-3-G3-IGFR]', '<', 0.1),
  ('YSCGDGFYSLLSDLLGGQFRC [20E2B-4-H12-IGFR]', '=', 0.1),
  ('RLFYCGIQALGANLGYSGCV [R20α-4-20A12-IR]', '=', 0.1);
